- targetEntity: T1, cyno PD-1 (soluble analyte in SPR) (cyno)
- T1 construct: also called cynomolgus PD-1
- methodNotes: SPR (ProteOn XPR36), mAb captured on anti-human IgG Fc, cyno PD-1 as analyte, 25 C
attributeMeasured: koff (s⁻¹)
Express it in s⁻¹; write the number only.

Need koff, item PD1B1095 (antibody, human IgG1, kappa, V domains shown, also called VH PD1H587; VL PD1L652) VH: QVQLVQSGSELKKPGASVKVSCKASGYTFTDYSMHWVRQAPGQGLEWMGWINIETGWPTYAQGFTGRFVFSLDTSVSTAYLQISSLKAEDTAVYFCARDYYGTYFYAMDYWGQGTLVTVSS VL: EIVLTQSPATLSLSPGERATLSCTASSSVPSSYLHWYQQKPGLAPRLLIYSTSNLASGIPDRFSGSGSGTDYTLTISRLEPEDFAVYYCHQYHRSPLTFGQGTKLEIKR
0.000781

Entry under review: PD1B1088 (antibody, human IgG1, kappa, V domains shown, also called VH PD1H405; VL PD1L651) VH: QVQLVQSGSELKKPGASVKVSCKASGYTFTDYSMHWVRQAPGQGLEWMGWINIETGEPTYAQGFTGRFVFSLDTSVSTAYLQISSLKAEDTAVYFCARDYYGTYFYAMDYWGQGTLVTVSS VL: EIVLTQSPATLSLSPGERATLSCTASSSFSSSYLHWYQQKPGLAPRLLIYSTSNLASGIPDRFSGSGSGTDYTLTISRLEPEDFAVYYCHQYHRSPLTFGQGTKLEIKR . Reported koff?
0.00479

Any idea what koff was measured for PD1B1090 (antibody, human IgG1, kappa, V domains shown, also called VH PD1H585; VL PD1L651) VH: QVQLVQSGSELKKPGASVKVSCKASGYTFTDYSMHWVRQAPGQGLEWMGWINIETGYPTYAQGFTGRFVFSLDTSVSTAYLQISSLKAEDTAVYFCARDYYGTYFYAMDYWGQGTLVTVSS VL: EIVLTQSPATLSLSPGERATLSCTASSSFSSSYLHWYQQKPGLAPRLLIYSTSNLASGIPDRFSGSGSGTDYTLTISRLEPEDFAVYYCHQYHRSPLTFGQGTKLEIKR ?
0.000185

Ref: patent US20180355061A1
